# test-target: ATase1 (Homo sapiens)
# Sequence (Q9UHF3 whole entry): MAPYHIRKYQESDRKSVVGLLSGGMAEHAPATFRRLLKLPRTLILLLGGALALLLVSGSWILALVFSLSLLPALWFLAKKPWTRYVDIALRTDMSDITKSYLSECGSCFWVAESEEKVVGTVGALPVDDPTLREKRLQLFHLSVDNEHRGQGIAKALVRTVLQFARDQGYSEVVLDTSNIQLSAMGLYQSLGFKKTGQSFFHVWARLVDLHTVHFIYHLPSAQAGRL
pIC50: −log10 of the molar value.
metric-name: pIC50

The reported ATase1 (Homo sapiens) pIC50 of CCOc1ccccc1NC1=C(Cl)C(=O)c2ccccc2C1=O [Compound 19] is ~4.88

* * *

# Test system: BACE1
# experimental-details: Western blot assessment of BACE1 levels in H4 cell lysates
# Format: cell-based, human
# experimental-parameters: H4 cells, 10 μM, 48 hours

| compound | test-target | levels of BACE1 |
| --- | --- | --- |
| CCOc1ccccc1NC1=C(Cl)C(=O)c2ccccc2C1=O [Compound 19] | BACE1 | significant reduction |
| O=c1c(Cl)c2oc3ccccc3nc-2c2ccccc12 [Compound 9] | BACE1 | significant reduction |

From: patent US9522124B2
